- System: A549/ATCC NSCLC
- measurementNotes: NCI-60 one-dose screen, 48 h (100 = growth as untreated, 0 = no growth, -100 = all killed)
- reportedConditions: 10 µM unless noted
About 83,000 compounds went through this panel and 20% of them were active in at least one assay; those are over-represented in the sample as a whole.
Response field label takes 1 when growth is strictly below 50% and 0 in all other cases.

Ask: Strictly below 50% in growth? O=C1/C=C/[C@@H](O)[C@@H]2C[C@@H](O)C[C@H]2/C=C/CCC[C@H](CCc2ccc3ncccc3c2)O1
Reply: 1

Ask: Strictly below 50% in growth? C/C=C(\C)C(=O)NC1=CC[C@@]2(C)C(=CCC3C2CC[C@@]2(C)C3CC[C@@H]2C(C)N(C)C)C1=O (stereo partly drawn)
Reply: 0

Ask: Strictly below 50% in growth? COc1cc2oc(-c3cccc(C(=O)Nc4ccc(Cl)cc4)c3)cc(=O)c2c(O)c1OC
Reply: 1

Ask: Strictly below 50% in growth? CC(C)(C)CC(C)(C)n1nnnc1C(NC12CC3CC(CC(C3)C1)C2)c1ccccc1 (stereo not drawn)
Reply: 0

Ask: Strictly below 50% in growth? Cc1c2cc[nH]c(=O)c2c(C)c2c1[nH]c1cc(OCCN3CCN(C)CC3)ccc12
Reply: 1

Ask: Strictly below 50% in growth? O=c1c2c(c(=O)n1O)c1c3ccc[nH]c3nc1c1nc3[nH]cccc3c12
Reply: 0

Ask: Strictly below 50% in growth? CCCOC(=O)N[C@H]1CCc2c(Cl)c(OC)c(OC)c(OC)c2-c2ccc(SC)c(=O)cc21
Reply: 1

Ask: Strictly below 50% in growth? O=C1c2ccc3c4c(ccc(c24)C(=O)N1CCCNCc1ccccc1F)C(=O)N(CCCNCc1ccccc1F)C3=O
Reply: 1

Ask: Strictly below 50% in growth? COc1cc2c(=O)n(CCN(C)C)c3c4cc5c(cc4ccc3c2cc1OC)OCO5
Reply: 1

Ask: Strictly below 50% in growth? CCN(CC)c1ccc(C(=O)c2ccccc2)cc1
Reply: 0

Ask: Strictly below 50% in growth? COc1cc(C=O)ccc1OC1OC(COC(C)=O)C(OC(C)=O)C(OC(C)=O)C1OC(C)=O (stereo not drawn)
Reply: 0

Ask: Strictly below 50% in growth? CN1C(N2CCN(S(=O)(=O)c3ccccc3)CC2)=NS(=O)(=O)c2ccccc21
Reply: 0

Ask: Strictly below 50% in growth? CC1(C)CC[C@]2(C(=O)O)CC[C@]3(C)C(=CC[C@@H]4[C@@]5(C)Cc6c([nH]c7ccccc67)C(C)(C)[C@@H]5CC[C@]43C)[C@@H]2C1
Reply: 1

Ask: Strictly below 50% in growth? CC(=O)N1N=C(c2ccc(-n3ccc(C(F)(F)F)n3)c(F)c2)CC1c1ccc[nH]1 (stereo not drawn)
Reply: 0

Ask: Strictly below 50% in growth? COc1cc(/C(C)=C(\c2ccc(Cl)cc2)c2ccc(OCCN3CCCC3)cc2)ccc1F
Reply: 0

Ask: Strictly below 50% in growth? CCCCCN1C=C/C(=C\C(=O)N(C)c2ccccc2Br)c2ccccc21
Reply: 0

Ask: Strictly below 50% in growth? Nc1n[nH]c2cccc(C#Cc3cccc(C(=O)Nc4cc(CN5CCOCC5)cc(C(F)(F)F)c4)c3)c12
Reply: 1

Ask: Strictly below 50% in growth? O=C1c2ccccc2C(=O)c2c([N+](=O)[O-])ccc(Cl)c21
Reply: 0

Ask: Strictly below 50% in growth? CCc1ccc(-c2cn3ccnc3c(-c3ccc4ncn(Cc5ccccc5)c4c3)n2)cc1
Reply: 0

Ask: Strictly below 50% in growth? CCOc1ccc(Nc2nc(-c3ccc4c(c3)NC(=O)CO4)cs2)cc1
Reply: 0

Ask: Strictly below 50% in growth? N#C/C(=C\c1ccc(Cl)cc1)n1nnc2cc(F)c(F)cc21
Reply: 1

Ask: Strictly below 50% in growth? Cc1ncc(C(=O)Nc2ccc(CN3CCN(C)CC3)c(C(F)(F)F)c2)cc1C#Cc1cnc(N)cc1C#N
Reply: 1

Ask: Strictly below 50% in growth? NS(=O)(=O)c1ccc(Cn2c(SCC(=O)N/N=C/c3ccccc3O)nc3ccccc3c2=O)cc1
Reply: 0

Ask: Strictly below 50% in growth? O=C1Nc2cc(-c3cccc(O)c3)ccc2/C1=C/c1ccc[nH]1
Reply: 1

Ask: Strictly below 50% in growth? CC(Sc1nc2ccccc2c(=O)n1CCc1ccc(S(N)(=O)=O)cc1)C(=O)Nc1ccc(Cl)cc1 (stereo not drawn)
Reply: 0

Ask: Strictly below 50% in growth? CCNC(=O)Oc1ccc(/C(=C(\C)c2ccccc2)c2ccc(OCCCN(C)C)cc2)cc1
Reply: 0

Ask: Strictly below 50% in growth? CNC(=O)c1cccc(Cn2nc(C)c(NC(=O)c3ccc(COc4ccc(C(F)(F)F)cc4C)cc3)c2C)n1
Reply: 1

Ask: Strictly below 50% in growth? COc1ccc(C(=O)C2C(C#N)C(C#N)C3C=Cc4ccccc4N32)cc1 (stereo not drawn)
Reply: 1

Ask: Strictly below 50% in growth? COc1cc(/C(C)=C(\c2ccc(Cl)cc2)c2ccc(OCCN(C)C)cc2)ccc1F
Reply: 0

Ask: Strictly below 50% in growth? Oc1cccc(CCc2ccc(Oc3cc(CCc4cccc(O)c4)cc(O)c3O)cc2)c1
Reply: 0

Ask: Strictly below 50% in growth? CCCCCCNC(=O)Oc1ccc(/C(=C(\C)c2ccccc2)c2ccc(OCCCN(C)C)cc2)cc1
Reply: 0

Ask: Strictly below 50% in growth? CSc1nc2sc3cccc(Cl)c3n2c(=N)c1C#N
Reply: 0

Ask: Strictly below 50% in growth? Cc1ccc(NC(C(=O)c2ccccc2)c2ccccc2)cc1 (stereo not drawn)
Reply: 0

Ask: Strictly below 50% in growth? Cc1ccc(S(=O)(=O)NNC(=O)/C(=C\c2ccc(Cl)cc2)c2nc3ccccc3s2)cc1
Reply: 0

Ask: Strictly below 50% in growth? COc1cc2cc(CN3CCN(c4nccc(-c5ccc6ccccc6c5)n4)CC3)c(=O)[nH]c2cc1OC
Reply: 1

Ask: Strictly below 50% in growth? Cc1ccc(-n2cc(-c3ccccc3)c3c2N=NN2CCN=C32)cc1
Reply: 0

Ask: Strictly below 50% in growth? COc1cc(C2C3=C(COC3=O)N(CCO)c3cc4c(cc32)OCO4)cc(OC)c1OC (stereo not drawn)
Reply: 1

Ask: Strictly below 50% in growth? O=C1c2cccc3c(-c4ccc5c(c4)ncn5C4CCCCC4)ccc(c23)C(=O)N1c1nc2ccccc2s1
Reply: 0

Values were extracted from PubChem BioAssay (NCI).
